The values you see were collected from patent US10669235B2.

- assay procedure: PAMPA permeability assay
- Format: in vitro ADME
- experimental conditions: pH 7, PAMPA
Counter-ions that a name gives are not always drawn.
Record form. Attribute: recovery at 5 hr, 10 μM. Fill in for each entry.
Answers are plain numbers, in %.

COC(=O)c1cc2c(cc1C)/C(=C(/Nc1ccc(C(=O)N3CCC(CO)(CN(C)C)CC3)cc1)c1ccccc1)C(=O)N2    70.3
COC(=O)c1cc2c(cc1C)/C(=C(/Nc1ccc(C(=O)NCCN3CCC(O)CC3)cc1)c1ccccc1)C(=O)N2    87.7
COC(=O)c1cc2c(cc1C)/C(=C(/Nc1ccc(S(=O)(=O)NCCN(C)C)cc1)c1ccccc1)C(=O)N2 [Example 25, formate]    105
COC(=O)c1cc2c(cc1C)/C(=C(/Nc1ccc(C(=O)N[C@H]3CCCN(C)C3)cc1)c1ccccc1)C(=O)N2    54.3

API: the following record is the query input.
Quick one: recovery at 5 hr, 10 μM for COC(=O)c1cc2c(cc1C)/C(=C(/Nc1ccc(C(=O)N3CCC(O)(CN4CCCC4)CC3)cc1)c1ccccc1)C(=O)N2 [Example 37, formate] ?
68.2

---

- assay procedure: PAMPA permeability assay
- Assay type: in vitro ADME
- experimental conditions: pH 7, PAMPA, pH 7, 10 μM, 5 hr
Structures can show the parent of a compound that is named as a salt.
measurement label: Papp at 5 h, 10 µM (nm/s)
Answers are plain numbers, in nm/s.

# annotated cases, reported Papp at 5 h, 10 µM shown
COC(=O)c1cc2c(cc1C)/C(=C(/Nc1ccc(C(=O)NCCN3CCN(C)CC3)cc1)c1ccccc1)C(=O)N2    0.216
COC(=O)c1cc2c(cc1C)/C(=C(/Nc1ccc(C(=O)N3CCC(O)(CN4CCOCC4)CC3)cc1)c1ccccc1)C(=O)N2    0.893
COC(=O)c1cc2c(cc1C)/C(=C(/Nc1ccc(C(=O)N3CCN(C)CC3)cc1)c1ccccc1)C(=O)N2    246
COC(=O)c1cc2c(cc1C)/C(=C(/Nc1ccc(C(=O)NCCN3CCN(S(C)(=O)=O)CC3)cc1)c1ccccc1)C(=O)N2    0.0879
COCCNC(=O)CN1CCN(C(=O)c2ccc(N/C(=C3\C(=O)Nc4cc(C(=O)OC)c(C)cc43)c3ccccc3)cc2)CC1    6.33
COC(=O)c1cc2c(cc1C)/C(=C(/Nc1ccc(C(=O)N[C@H]3CCCN(C)C3)cc1)c1ccccc1)C(=O)N2    168

Record Papp at 5 h, 10 µM for all entries; do not skip any.
1. COC(=O)c1cc2c(cc1C)/C(=C(/Nc1ccc(S(=O)(=O)N3CCN(CCO)CC3)cc1)c1ccccc1)C(=O)N2 [Example 26, formate]
2. COC(=O)c1cc2c(cc1C)/C(=C(/Nc1ccc(C(=O)NCC3(N(C)C)CCC3)cc1)c1ccccc1)C(=O)N2
3. COC(=O)c1cc2c(cc1C)/C(=C(/Nc1ccc(C(=O)NCCCN3CCN(C)CC3)cc1)c1ccccc1)C(=O)N2 [Example 21, formate]

1: 103; 2: 265; 3: 0.442

---

- subject of test: PDGFRβ (Homo sapiens (Human), UniProt P09619)
- Sequence (P09619 33-1106): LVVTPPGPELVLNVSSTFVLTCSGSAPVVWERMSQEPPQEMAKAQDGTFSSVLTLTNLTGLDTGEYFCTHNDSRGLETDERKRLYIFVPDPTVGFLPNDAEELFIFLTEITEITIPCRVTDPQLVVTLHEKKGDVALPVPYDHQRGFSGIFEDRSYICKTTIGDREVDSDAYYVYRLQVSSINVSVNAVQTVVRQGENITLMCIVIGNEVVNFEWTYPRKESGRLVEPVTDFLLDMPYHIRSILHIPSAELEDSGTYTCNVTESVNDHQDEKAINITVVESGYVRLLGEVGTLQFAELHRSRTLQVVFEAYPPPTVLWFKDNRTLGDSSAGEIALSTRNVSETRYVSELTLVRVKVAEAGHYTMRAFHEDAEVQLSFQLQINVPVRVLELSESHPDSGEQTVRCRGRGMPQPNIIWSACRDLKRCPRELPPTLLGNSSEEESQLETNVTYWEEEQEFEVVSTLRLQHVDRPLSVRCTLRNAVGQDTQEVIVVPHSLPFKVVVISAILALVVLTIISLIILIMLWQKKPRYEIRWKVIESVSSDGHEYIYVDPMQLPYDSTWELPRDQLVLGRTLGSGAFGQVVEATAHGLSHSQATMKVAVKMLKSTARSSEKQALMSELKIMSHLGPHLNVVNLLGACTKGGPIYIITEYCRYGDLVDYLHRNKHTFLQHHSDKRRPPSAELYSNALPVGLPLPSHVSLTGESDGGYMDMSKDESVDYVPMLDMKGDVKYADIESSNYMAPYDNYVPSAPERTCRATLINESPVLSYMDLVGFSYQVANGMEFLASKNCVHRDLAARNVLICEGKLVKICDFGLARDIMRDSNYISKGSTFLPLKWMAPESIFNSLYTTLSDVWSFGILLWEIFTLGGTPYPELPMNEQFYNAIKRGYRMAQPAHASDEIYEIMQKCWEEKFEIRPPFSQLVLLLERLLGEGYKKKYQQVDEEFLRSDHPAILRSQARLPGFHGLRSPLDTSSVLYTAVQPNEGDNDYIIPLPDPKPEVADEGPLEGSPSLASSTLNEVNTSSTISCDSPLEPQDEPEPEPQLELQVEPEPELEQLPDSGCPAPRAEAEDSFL
- assay procedure: PDGFRβ enzyme inhibition (ADP-Glo assay)
- Assay type: biochemical
- experimental conditions: mean, n = 2 (nintedanib n = 34)
Structures can show the parent of a compound that is named as a salt.
measurement label: Ki (nM)
One number for each entry, in nM.

Known results for compounds:
COC(=O)c1cc2c(cc1C)/C(=C(/Nc1ccc(C(=O)N3CCC4(CC3)C(=O)NCCN4C)cc1)c1ccccc1)C(=O)N2    10
COC(=O)c1cc2c(cc1C)/C(=C(/Nc1ccc(C(=O)N[C@H]3CCCN(C)C3)cc1)c1ccccc1)C(=O)N2    18
COC(=O)c1cc2c(cc1C)/C(=C(/Nc1ccc(C(=O)NCCN3CCC(CO)CC3)cc1)c1ccccc1)C(=O)N2    14.4
COC(=O)c1cc2c(cc1C)/C(=C(/Nc1ccc(C(=O)NC3CCN(C)CC3)cc1)c1ccccc1)C(=O)N2 [Example 18, formate]    7.99
CNC(=O)CN1CCN(C(=O)c2ccc(N/C(=C3\C(=O)Nc4cc(C(=O)OC)c(C)cc43)c3ccccc3)cc2)CC1    10.6
COC(=O)c1cc2c(cc1C)/C(=C(/Nc1ccc(C(=O)N3CCC(C(N)=O)(N4CCCCC4)CC3)cc1)c1ccccc1)C(=O)N2    98.9
COC(=O)c1cc2c(cc1C)/C(=C(/Nc1ccc(C(=O)N(C)C3CCN(CCO)CC3)cc1)c1ccccc1)C(=O)N2    10.2

Now, please, on to the next compound.
Please provide the recorded Ki for COC(=O)c1cc2c(cc1C)/C(=C(/Nc1ccc(C(=O)NCCN3CCN(C(C)=O)CC3)cc1)c1ccccc1)C(=O)N2 , tested on PDGFRβ (Homo sapiens (Human), UniProt P09619).
12.7
